System: CSNK2A2
Conditions: concentration: 1 μM, replicates: in singlicate; n = 1;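 further: KINOMEscan kinase panel screen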
Values of %Inh greater than or equal to 4% map to 1 (yes); values below map to 0 (no).

Example results:
1. N#Cc1ccc(-c2cc(-c3c[nH]nc3-c3ccccn3)ccn2)cc1 ... 1 (yes)
2. [2H]C([2H])(c1cccc(C(F)(F)F)c1C)n1ccn2c(=O)nc(N3CCOCC3)cc12 ... 0 (no)
3. Cc1ccc(NC(=O)c2ccnc(N3CCN(C)CC3)c2)cc1-c1ccc(C(=O)NCC2CC2)cc1 ... 1 (yes)
4. CCCCCc1nc2c(N)ncnc2n1CCCCC ... 1 (yes)
5. O=C(Nc1n[nH]c2cc(-c3cccc(F)c3)ccc12)C1CC1 ... 1 (yes)
6. COc1ccc(COc2cc(-n3cnc4ccccc43)sc2C(N)=O)cc1 ... 1 (yes)
7. CN(C1=C(c2ccccc2)C(=O)NC1=O)c1ccccc1 ... 1 (yes)
8. COC(=O)Nc1nc2cc(Oc3ccc(NC(=O)Nc4cc(F)ccc4F)cc3)ccc2[nH]1.Cl ... 1 (yes)

%Inh >= 4% for Cc1c(Cn2c(C)nn3c(=O)cc(N4CCOC(C)C4)nc23)cccc1C(F)(F)F (centres unmarked) ? 1 (yes)

%Inh >= 4% for CCc1ccnc(/C=C/c2n[nH]c3cc(Sc4ccccc4C(=O)NC)ccc23)c1 ? 0 (no)

%Inh >= 4% for c1ccc(-c2n[nH]cc2-c2ccnc3ccccc23)nc1 ? 1 (yes)

----------
Below, each entry is listed alongside its reported %Inh.
System: CAMK2A
Settings: concentration: 1 μM, replicates: in singlicate; n = 1
Mention the unit after the number when you answer.

1. NS(=O)(=O)CCc1cccc(Nc2nccc(-c3c(-c4cccc(NC(=O)c5c(F)cccc5F)c4)nn4ccccc34)n2)c1 ... 0%
2. CCc1ccnc(/C=C/c2n[nH]c3cc(Sc4ccccc4C(=O)NC)ccc23)c1 ... 4%
3. O=c1cc(N2CCOCC2)nc2n(Cc3cccc(C(F)(F)F)c3)ccn12 ... 0%

Entry Cl.Nc1ncnc2occ(-c3ccc(NC(=O)Nc4cc(C(F)(F)F)ccc4F)cc3)c12 has what %Inh? 0%

----------
Tested on: PLK1
Details: concentration: 1 μM, replicates: in singlicate; n = 1
value-kind: %Inh (%)
All answers are understood in %, so give the number only.

1) COc1cc2c(cc1OC[C@@H](O)CO)ncc1c3ccc(C#N)cc3[nH]c21 ... 0
2) O=c1cc(N2CCOCC2)nc2n(Cc3cccc4ccccc34)ccn12 [GSK2333389] ... 0
3) Cc1c2ccc(N(C)c3ccnc(Nc4cccc(S(N)(=O)=O)c4)n3)cc2nn1Cc1ccccc1.Cl.Cl [GW787226] ... 0
4) O=C1NC(=O)C(N2CCc3ccccc32)=C1c1cccc(Cl)c1 [SB-408010] ... 27
5) N#Cc1ccc(-c2cc(-c3c[nH]nc3-c3ccccn3)ccn2)cc1 [GW693028] ... 0

Lab note: next molecule to report on.
Entry COc1ccc(CNC(=O)NC2CCN(c3ccnc(Nc4ccc(OC)cc4)n3)C2)cc1 (stereo not drawn) [GSK1379727] has what %Inh? 0

----------
System: TRKA
Construct: gene NTRK1
Conditions: concentration: 1 μM, replicates: in singlicate; n = 1
Below, each entry is listed alongside its reported %Inh.
All answers are understood in %, so give the number only.

1. COc1cc(Nc2nccc(N3CCC(NC(=O)c4cccc(NC(C)=O)c4)C3)n2)cc(OC)c1OC (centres unmarked) ... 69

Entry CC(=O)Nc1ccc(COc2ccc(Nc3ccnc4cc(-c5ccccn5)ccc34)cc2)cc1.Cl has what %Inh? 14

Entry NS(=O)(=O)c1cccc(-c2ccc3ncc(N4CCOCC4)nc3c2)c1 has what %Inh? 37

Entry [2H]C([2H])(c1cccc(C(F)(F)F)c1C)n1ccn2c(=O)nc(N3CCOCC3)cc12 has what %Inh? 0

Entry O=c1cc(N2CCOCC2)nc2n(Cc3cccc(F)c3)ccn12 has what %Inh? 54

----------
Test system: MAP3K15
Settings: concentration: 1 μM, replicates: in singlicate; n = 1
Below, each entry is listed alongside its reported %Inh.

Here's what some known entries look like.
1. Nc1nc(-c2ccc3c(N)n[nH]c3c2)cc(N2CCCC2)n1 [GSK2227430] ... 0%
2. c1ccc(-c2n[nH]cc2-c2ccnc3ccccc23)nc1 [GW271431] ... 0%
3. O=C(NCCNc1ccnc(Nc2ccc(F)cc2)n1)Nc1ccccc1F [GSK1379880] ... 14%

Lab note: next molecule to report on.
Entry O=C(c1ccc(-c2cc(-c3c[nH]nc3-c3ccccn3)ccn2)cc1)N1CCOCC1 [GW812171] has what %Inh? 0%

----------
Below, each entry is listed alongside its reported %Inh.
Test system: PIK3CA
Details: concentration: 1 μM, replicates: in singlicate; n = 1
All answers are understood in %, so give the number only.

Here's what some known entries look like.
1. Fc1ccc(-c2ncn(CCCN3CCOCC3)c2-c2cccnc2)cc1 ... 10
2. CN(C(=O)c1ccc(-c2cc(-c3c[nH]nc3-c3ccccn3)ccn2)cc1)C1CCOCC1 ... 0
3. Cl.Oc1cccc(Nc2ccnc3cc(-c4ccncc4)ccc23)c1 ... 0
4. NS(=O)(=O)CCc1cccc(Nc2nccc(-c3c(-c4cccc(NC(=O)c5c(F)cccc5F)c4)nn4ccccc34)n2)c1 ... 0
5. O=C(Nc1n[nH]c2cc(-c3cccc(F)c3)ccc12)C1CC1 ... 0

Entry Fc1ccc(-c2ncn(CCCN3CCOCC3)c2-c2ccccn2)cc1 has what %Inh? 0

Entry O=c1cc(N2CCOCC2)nc2n(Cc3cccc(F)c3)ccn12 has what %Inh? 0

Entry Cn1ccc2ncnc(Oc3ccc(NC(=O)Nc4ccncc4)c(Cl)c3)c21 has what %Inh? 11

----------
System: DYRK1A
Conditions: concentration: 1 μM, replicates: in singlicate; n = 1
value-kind: %Inh (%)
All answers are understood in %, so give the number only.

1. COc1cc(Nc2nccc(N3CCC(NC(=O)c4cccc(NC(C)=O)c4)C3)n2)cc(OC)c1OC (stereo not drawn) ... 17

Entry COc1ccc(CNC(=O)NC2CCN(c3ccnc(Nc4ccc(OC)cc4)n3)C2)cc1 (stereo not drawn) has what %Inh? 20

Entry COc1ccc(Nc2nccc(N3CCC(NC(=O)Nc4cc(C)ccc4C)C3)n2)cc1 (stereo not drawn) has what %Inh? 14

----------
Below, each entry is listed alongside its reported %Inh.
Tested on: PKN1
Details: concentration: 1 μM, replicates: in singlicate; n = 1
All answers are understood in %, so give the number only.

Here's what some known entries look like.
1) Cc1nnc(-c2ccc(C)c(-c3ccc(C(=O)Nc4ccc(NS(C)(=O)=O)cc4)cc3)c2)o1 ... 28
2) COc1cc2c(cc1OC[C@@H](O)CO)ncc1c3ccc(C#N)cc3[nH]c21 ... 0
3) COCCNC(=O)c1ccc(-c2cc(C(=O)NC3CC3)cc(F)c2C)cc1 ... 0
4) COc1ccc(COc2cc(-n3cnc4ccccc43)sc2C(N)=O)cc1 ... 0
5) COc1cc2ncn(-c3cc(OCc4sccc4Cl)c(C(N)=O)s3)c2cc1OC ... 0
6) O=C(c1ccc(-c2cc(-c3c[nH]nc3-c3ccccn3)ccn2)cc1)N1CCOCC1 ... 0
7) O=c1cc(N2CCOCC2)nc2n(Cc3cccc(F)c3)ccn12 ... 20
8) COc1cc(Nc2nccc(N3CCC(NC(=O)c4cccc(NC(C)=O)c4)C3)n2)cc(OC)c1OC (stereo not drawn) ... 0
9) O=C(NCCNc1ccnc(Nc2ccc(F)cc2)n1)Nc1ccccc1F ... 0
10) NS(=O)(=O)c1cccc(-c2ccc3ncc(N4CCOCC4)nc3c2)c1 ... 0

Entry Fc1ccc(-c2ncn(CCCN3CCOCC3)c2-c2ccccn2)cc1 has what %Inh? 0

Entry COc1ccc(S(=O)(=O)NC2CCN(c3cc(C)nc(Nc4cccc(C#N)c4)n3)CC2)cc1.O=C(O)C(F)(F)F has what %Inh? 0

Entry O=C(NOCC1CC1)c1ccc(F)c(F)c1Nc1ccc(I)cc1Cl has what %Inh? 0

----------
System: TAOK1
Details: concentration: 1 μM, replicates: in singlicate; n = 1
Below, each entry is listed alongside its reported %Inh.
All answers are understood in %, so give the number only.

Here's what some known entries look like.
1) COc1ccc(S(=O)(=O)NC2CCN(c3cc(C)nc(Nc4cccc(C#N)c4)n3)CC2)cc1.O=C(O)C(F)(F)F ... 0
2) N#Cc1c(N2CCOCC2)sc(-c2ccn[nH]2)c1-c1ccc(Cl)cc1 ... 0
3) CCn1cnc2c(N)ncnc21 ... 16
4) [2H]C([2H])(c1cccc(C(F)(F)F)c1C)n1ccn2c(=O)nc(N3CCOCC3)cc12 ... 0
5) CC(=O)Nc1ccc(COc2ccc(Nc3ccnc4cc(-c5ccccn5)ccc34)cc2)cc1.Cl ... 0

Entry COc1cc2c(cc1OCCN1CCN(C)CC1)ncc1c3ccc(C#N)cc3[nH]c21 has what %Inh? 0

Entry Cc1c(Cn2c(C)nn3c(=O)cc(N4CCOC(C)C4)nc23)cccc1C(F)(F)F (stereo not shown) has what %Inh? 0

Entry NCC(NC(=O)c1cc(-c2cn[nH]c2)c(-c2ccnc3[nH]ccc23)s1)c1ccccc1.O=C(O)C(F)(F)F.O=C(O)C(F)(F)F (stereo not shown) has what %Inh? 91.9

Entry CN1c2ccc(CNc3ccc(F)cc3)cc2-c2c(cnn2C)S1(=O)=O has what %Inh? 0

Entry Cc1c2ccc(N(C)c3ccnc(Nc4cccc(S(N)(=O)=O)c4)n3)cc2nn1Cc1ccccc1.Cl.Cl has what %Inh? 0

Entry O=C1NC(=O)C(N2CCc3ccccc32)=C1c1cccc(Cl)c1 has what %Inh? 0

Entry Fc1ccc(-c2nn3c(OCC(F)(F)F)cccc3c2-c2ccncc2)cc1 has what %Inh? 0

Entry CN(C(=O)c1ccc(-c2cc(-c3c[nH]nc3-c3ccccn3)ccn2)cc1)C1CCOCC1 has what %Inh? 0
